Origin of values: ChEMBL document CHEMBL1201862

System: TK-10
Assay: NCI tumour cell line growth inhibition, 48 h
Activity calls are given as the source filed them. Rule as the data show it: active = GI50 up to about 1.1 µM and inactive = higher. Positions of bridges follow the written chain, without caps; N, C: chain ends. Residues, ends and D or L forms follow the SMILES beside them.
Labels: active, inactive

[
  {
    "compound": "Nc1ccccc1S(=O)(=O)N(CC(=O)O)c1ccccc1",
    "answer_label": "inactive"
  },
  {
    "compound": "CC(=O)OCC12C(OC(C)=O)C(=O)C3C(OC(C)=O)C14OC3(C)COC(=O)c1cccnc1C(C)C(C)C(=O)OC(C(OC(C)=O)C2OC(C)=O)C4(C)O (centres undefined)",
    "answer_label": "inactive"
  },
  {
    "compound": "O=C(O)c1ccc([N+](=O)[O-])c(P(=O)(O)O)c1",
    "answer_label": "inactive"
  },
  {
    "compound": "CCC(=O)O[C@H]1CC[C@H]2[C@@H]3CCC4=C/C(=N/OC(=O)c5cccc6c(=O)c7ccccc7[nH]c56)CC[C@]4(C)[C@H]3CC[C@]12C",
    "answer_label": "inactive"
  },
  {
    "compound": "[O-][n+]1c2cc(CN3CCOCC3)c(CN3CCOCC3)cc2[n+]([O-])c2c(O)cccc21",
    "answer_label": "inactive"
  },
  {
    "compound": "O=C1OC(C(O)C(O)C(O)CO)C(O)C1O (centres undefined)",
    "answer_label": "inactive"
  },
  {
    "compound": "CC(=O)NC(CCCCNCc1ccccc1)C(=O)NCc1ccccc1 (centres undefined)",
    "answer_label": "inactive"
  },
  {
    "compound": "Cc1nc2c(N)ncnc2o1",
    "answer_label": "inactive"
  },
  {
    "compound": "NCc1ccc(O)c(O)c1O",
    "answer_label": "inactive"
  },
  {
    "compound": "COc1cccc(C2c3cc4c(cc3OC(Nc3ccccc3)C2C)OCO4)c1OC (centres undefined)",
    "answer_label": "inactive"
  },
  {
    "compound": "Cc1ccc(-c2c(C#N)c(-c3ccc(N(C)C)cc3)c(C#N)c(=O)n2NS(=O)(=O)c2ccccc2)cc1",
    "answer_label": "inactive"
  },
  {
    "compound": "O=C1c2ccccc2C(=O)c2c1ccc1nc3c(nc21)-c1c2ccccc2cc2cccc-3c12",
    "answer_label": "inactive"
  },
  {
    "compound": "CN(C)CC1CCCC(CN(C)C)C1=NOC(=O)c1ccccc1 (centres undefined)",
    "answer_label": "inactive"
  },
  {
    "compound": "O=C(/C=C/c1cccc([N+](=O)[O-])c1)c1cccnc1",
    "answer_label": "inactive"
  },
  {
    "compound": "Cc1ccc(C(=O)N/N=C(\\N=N\\c2ccccc2C(=O)O)c2ccc(N(C)C)cc2)cc1",
    "answer_label": "inactive"
  },
  {
    "compound": "C[C@]12CCC3=NCCN3C1=CC[C@@H]1[C@@H]2CC[C@@]2(C)[C@H]1CC[C@]2(C)O",
    "answer_label": "inactive"
  },
  {
    "compound": "Clc1ccc(-c2c3nc(c(-c4ccc(Cl)cc4)c4ccc([nH]4)c(-c4ccc(Cl)cc4)c4nc(c(-c5ccc(Cl)cc5)c5ccc2[nH]5)C=C4)C=C3)cc1",
    "answer_label": "inactive"
  },
  {
    "compound": "CCOC(=O)C1N(S(=O)(=O)c2ccc(C)cc2)CCC12c1ccccc1N(C(C)=O)C2c1ccc(OC)c(OC)c1 (centres undefined)",
    "answer_label": "inactive"
  },
  {
    "compound": "CCC(C)C1NC(=O)C(CC(C)C)NC(=O)C(C(C)C)NC(=O)C2CSSCC(NC1=O)C(=O)N2 (centres undefined) (cyclo(CCVLI); disulfide 1-2; configuration not given here)",
    "answer_label": "active"
  }
]

* * *

# GI50 listing for each entry below
Test system: HCC 2998
Assay: NCI tumour cell line growth inhibition, 48 h
Activity calls are given as the source filed them. Cut-off read from the data, not from the text of the source: active = GI50 up to about 1.1 µM and inactive = higher. Where a SMILES comes first, the peptide text is derived from it. Bridges are numbered along the chain shown (N, C = ends). [ ]: non-standard residue; d: D form. The star is where a group is joined. ξ: configuration not given here. X28 = O=C(/C=C/C=C/C=C/C=C/C=C/C(=O)*)NC1=C(O)CCC1=O; NMeA = CN[C@@H](C)C(=O)O; ξF = NC(Cc1ccccc1)C(=O)O; ξA = CC(N)C(=O)O

[
  {
    "compound": "CN(C(=O)C12C3C4C1C1C2C3C41C(O)C(C)(C)C)C(C)(C)C (stereo not drawn)",
    "GI50": "> 100 µM (inactive)"
  },
  {
    "compound": "NS(=O)(=O)c1ccc(NNC(=O)c2cccc3c(=O)c4ccccc4[nH]c23)cc1",
    "GI50": "> 100 µM (inactive)"
  },
  {
    "compound": "COc1cc2c(cc1OCCCC(=O)Nc1cc(C(=O)Nc3cc(C(=O)NCCCN(C)C)n(C)n3)n(C)n1)N=CC1CCCN1C2=O (stereo not drawn)",
    "GI50": "17.3 µM (inactive)"
  },
  {
    "compound": "C=C(C(=O)C(=O)Oc1ccc(Cl)cc1)C(=O)c1ccc(C)cc1",
    "GI50": "26.5 µM (inactive)"
  },
  {
    "compound": "C[C@]12CC[C@H](O)CC1=CC[C@@H]1C2CC[C@]2(C)c3nn(-c4ccc(F)cc4)nc3CC12 (stereo partly drawn)",
    "GI50": "24 µM (inactive)"
  },
  {
    "compound": "COc1ccc2c(c1)CC1Cc3ccccc3CCN1C2 (stereo not drawn)",
    "GI50": "35.2 µM (inactive)"
  },
  {
    "compound": "COc1ccc(C(OC(C)=O)C2C(=C(C#N)C#N)c3ccccc3C2=C(C#N)C#N)cc1 (stereo not drawn)",
    "GI50": "22.6 µM (inactive)"
  },
  {
    "compound": "COC(=O)[C@H](C)NC(=O)[C@H](NS(=O)(=O)c1nc2ccccc2s1)c1ccccc1",
    "GI50": "20.1 µM (inactive)"
  },
  {
    "compound": "C[N+]12CCCCC1C(CN1C(=O)Cc3c4ccccc4c(c4ccccc34)CC1=O)CCC2 (stereo not drawn)",
    "GI50": "> 100 µM (inactive)"
  },
  {
    "compound": "CC/C(Cl)=N\\OC(=O)Nc1ccc(F)c([N+](=O)[O-])c1",
    "GI50": "29.4 µM (inactive)"
  },
  {
    "compound": "COC1=CC(=O)C2C(C1=O)[C@@H]1c3ccccc3OC[C@H]21 (stereo partly drawn)",
    "GI50": "> 100 µM (inactive)"
  },
  {
    "compound": "CC1NC(=O)[C@H](C)N(C)C(=O)[C@@H]2CCCN2C(=O)[C@@H](NC(=O)C(Cc2ccccc2)NC(=O)/C=C/C=C/C=C/C=C/C=C/C(=O)NC2=C(O)CCC2=O)COC(=O)[C@@H]2CCCN2C1=O (stereo partly drawn) (X28-[ξF]SP[NMeA][ξA]P; ester 2-C)",
    "GI50": "> 100 µM (inactive)"
  },
  {
    "compound": "CCOC(=O)CCn1cnc(N)n1",
    "GI50": "> 100 µM (inactive)"
  },
  {
    "compound": "Cc1ccc(C(=O)N/N=C(\\N=N\\c2ccccc2C(=O)O)c2ccc(N(C)C)cc2)cc1",
    "GI50": "71.4 µM (inactive)"
  },
  {
    "compound": "Cc1ccc(/N=C2\\C(=N/c3ccc(C)cc3)N(c3ccc(C)cc3)C(=S)N2C(=O)c2ccccc2)cc1",
    "GI50": "> 100 µM (inactive)"
  },
  {
    "compound": "O=C(CCN(CCO)CCO)Nc1ccc2c(c1)C(=O)c1ccc(NC(=O)CCN(CCO)CCO)cc1C2=O",
    "GI50": "1.51 µM (inactive)"
  },
  {
    "compound": "NC1(C(=O)O)CCCC1 [CYCLOLEUCINE]",
    "GI50": "> 625 µM (inactive)"
  },
  {
    "compound": "CC(=O)O[C@@H]1[C@H]2O[C@H]2[C@H]2O[C@@]2(COC(=O)c2ccccc2)[C@H]1OC(C)=O",
    "GI50": "> 100 µM (inactive)"
  },
  {
    "compound": "CC(=O)O[C@H]1C(=O)[C@@]2(C)[C@H]([C@H](OC(=O)c3ccccc3)[C@]3(O)C[C@H](OC(=O)[C@H](O)[C@@H](NC(=O)CC(C)C)c4ccccc4)C(C)=C1C3(C)C)[C@]1(OC(C)=O)CO[C@@H]1C[C@@H]2O",
    "GI50": "0.00303 µM (active)"
  },
  {
    "compound": "C=C(C)[C@@H]1CCC2=C[C@H](C/C(C)=C\\C3=CC(C)=C(O3)[C@H]1O)OC2=O",
    "GI50": "> 100 µM (inactive)"
  },
  {
    "compound": "CC1C(=O)CCC1C(Sc1ccccc1)(Sc1ccccc1)Sc1ccccc1 (stereo not drawn)",
    "GI50": "20.8 µM (inactive)"
  },
  {
    "compound": "Cc1ccc(/N=N\\c2c(O)c(S(=O)(=O)O)cc3cc(S(=O)(=O)O)ccc23)c(C)c1",
    "GI50": "> 100 µM (inactive)"
  },
  {
    "compound": "CC(=O)OC1(C#N)CC2OC1C1NC21 (stereo not drawn)",
    "GI50": "> 100 µM (inactive)"
  },
  {
    "compound": "CC(C)c1nc(Cl)nc(Cl)c1Cl",
    "GI50": "0.948 µM (active)"
  },
  {
    "compound": "O=C1C(C(c2ccc([N+](=O)[O-])cc2)N2CCOCC2)=C(O)C(c2ccccc2)N1c1ccccc1 (stereo not drawn)",
    "GI50": "> 10 µM (inactive)"
  },
  {
    "compound": "O=c1/c(=C/c2ccccn2)sc2nc3cc4c(cc3n12)OCCO4",
    "GI50": "> 100 µM (inactive)"
  },
  {
    "compound": "COc1ccc2c(c1)C(=O)[C@@](Nc1ccc(C=O)cc1)(OC)[C@@](OC)(c1ccc([N+](=O)[O-])cc1)O2",
    "GI50": "> 10 µM (inactive)"
  },
  {
    "compound": "CN/N=C(\\C)CC(=O)Nc1cccc(Cl)c1C",
    "GI50": "> 100 µM (inactive)"
  },
  {
    "compound": "O=C(CNc1nncs1)NO",
    "GI50": "> 100 µM (inactive)"
  },
  {
    "compound": "C=CCN1C(=O)/C(=C/c2ccco2)N=C1SC/C=C/C",
    "GI50": "93.8 µM (inactive)"
  },
  {
    "compound": "C[C@@H](NC(=O)OC1C=CC2(CC1)C(=O)N(C)c1ccccc12)c1cccc2ccccc12 (stereo partly drawn)",
    "GI50": "> 25 µM (inactive)"
  },
  {
    "compound": "Cc1ccc(C)c(NC(=O)c2cccc([N+](=O)[O-])c2O)c1",
    "GI50": "28.3 µM (inactive)"
  },
  {
    "compound": "Cc1ccc(SCC(CF)OC(C)n2cnc3c(Cl)nc(N)nc32)cc1 (stereo not drawn)",
    "GI50": "> 100 µM (inactive)"
  },
  {
    "compound": "O=C(N/N=C\\c1ccc([N+](=O)[O-])cc1)Nc1cccc2ccccc12",
    "GI50": "24.1 µM (inactive)"
  },
  {
    "compound": "CN(C)c1ccc(/C=N/c2ccc(-c3nc4ccccc4s3)cc2)cc1",
    "GI50": "20.8 µM (inactive)"
  },
  {
    "compound": "Nc1ccc2c(c1)C1Oc3ccccc3CC1CO2 (stereo not drawn)",
    "GI50": "> 100 µM (inactive)"
  },
  {
    "compound": "CCC(O)CC1OC2(CCC1C)CC1OC(=O)/C=C\\C(C)(O)C(O)C(C)C(O)C(OC3CC(OC)C(O)C(C)O3)C(O)C(C)(O)CCC/C=C/C3CC(C)COC3(O)CC(O2)C1C (stereo not drawn)",
    "GI50": "15.7 µM (inactive)"
  },
  {
    "compound": "Cc1cccc(C)c1N1C(=O)C2c3[nH]c4ccccc4c3C3CCC(C(C)(C)C)CC3C2C1=O (stereo not drawn)",
    "GI50": "3.85 µM (inactive)"
  }
]
